measured-on: GAL4 DBD-CfEcR(DEF)/VP16AD-MmRXRE (Choristoneura fumiferana)
test: 13B3 Assay (CHO stable cell line, luciferase reporter)
experimental-parameters: 33 uM ligand; RLU ligand treated / RLU DMSO treated cells; average of two wells
Please respond with condition met when measured Fold Induction, 13B3 Assay, 33 uM is strictly beneath 900, and with condition not met in all other cases.

Worked cases, answers included:
>>> cat("CC(=O)c1ccc(C(=O)NN(C(=O)c2cc(C(=O)O)cc(C(=O)O)c2)C(C)(C)C)cc1 [RG-100150]")
"condition met"
>>> cat("CCc1c(OC)cccc1C(=O)NN(C(=O)c1cc(C)cc(C)c1)C(C)(C)C#N [RG-115043]")
"condition met"
>>> cat("CCc1c(OC)cccc1C(=O)NN(C(=O)c1cc(C)cc(C)c1)C(C)(C)C=NNC(=O)C(N)=O [RG-115597]")
"condition not met"
>>> cat("CCc1ccc(C(=O)NN(C(=O)c2cc(C)cc(C)c2)C(C)C(C)(C)C)cc1 (stereo not shown) [RG-103451]")
"condition met"

Consider the compound COc1ccc(Cl)cc1C(=O)N(NC(=O)c1cccc(C)c1C)C(C)(C)C [RG-101178] . Is its Fold Induction, 13B3 Assay, 33 uM strictly less than 900?
condition met

CCc1ccc(C(=O)NN(C(=O)c2cc(C)c(Cl)c(C)c2)C(C)(C)C)cc1 [RG-101862] ?
condition met

Now this one: Cc1c(C(=O)NN(C(=O)c2cc(F)c(Cl)cc2Cl)C(C)(C)C)ccc2c1CCCO2 [RG-115539]
condition met

Continue with CCc1c(OC)cccc1C(=O)NN(C(=O)c1cc(F)c(Cl)cc1Cl)C(C)(C)C [RG-115302]
condition met

// same read-out, input: CCc1c(C(=O)NN(C(=O)c2ccccc2)C(C)(C)C)ccc2c1OCOC2 [RG-115046]
condition not met

And then CCc1c(OC)cccc1C(=O)NN(C(=O)c1ccc(Cl)cc1[N+](=O)[O-])C(C)(C)C [RG-115647] , what is it?
condition met

Next up: COc1cc(C(=O)N(NC(=O)c2cccc(O)c2C)C(C)(C)C)cc(OC)c1C [RG-115220]
condition not met

Could you do the same for CCc1ccc(C(=O)NN(C(=O)c2cc(C)cc(C)c2)C(C)(C)C)cc1Cl [RG-101864] , please?
condition met
